- System Tested: SGK3 (human) (UniProt Q96BR1)
- Sequence (Q96BR1 whole entry, looked up): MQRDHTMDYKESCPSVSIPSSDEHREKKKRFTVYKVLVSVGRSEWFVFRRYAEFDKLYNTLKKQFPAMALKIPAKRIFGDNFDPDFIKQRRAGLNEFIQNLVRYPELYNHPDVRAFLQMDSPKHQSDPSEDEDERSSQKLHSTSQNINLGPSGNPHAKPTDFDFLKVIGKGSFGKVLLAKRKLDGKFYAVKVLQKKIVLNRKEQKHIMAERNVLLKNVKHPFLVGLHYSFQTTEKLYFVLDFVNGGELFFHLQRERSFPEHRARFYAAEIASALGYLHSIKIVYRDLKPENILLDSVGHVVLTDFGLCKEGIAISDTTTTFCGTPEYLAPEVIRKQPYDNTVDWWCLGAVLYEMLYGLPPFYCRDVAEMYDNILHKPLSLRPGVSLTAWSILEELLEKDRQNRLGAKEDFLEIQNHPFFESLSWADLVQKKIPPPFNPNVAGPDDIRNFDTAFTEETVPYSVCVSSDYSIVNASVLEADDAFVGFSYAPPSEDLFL
- Test Details: split-luciferase competition binding
- Condition Notes: compound 10.0 µM
Quantity: inhibition (%)

[P] O=C1NC(=O)c2cc(Nc3ccc(F)cc3)c(Nc3ccc(F)cc3)cc21
[Q] N#C/C(=C(/N)Sc1ccc(N)cc1)c1ccccc1C(F)(F)F
[R] Cc1cc(F)c(Nc2ncnc3cc(OCc4ccccc4)ccc23)cc1O
[S] NC(=O)c1ccc(-c2nc(-c3ccccn3)c(-c3ccc4c(c3)OCCO4)[nH]2)cc1
Qu. Returns the items ordered by inhibition, from maximum to minimum. In plain terms: list the labels in the order you were asked to.
Ans. P, Q, S, R
(P: 12%, Q: 4%, S: 1%, R: 0%)

[1] O=c1cc(N2CCOCC2)oc2c(-c3ccccc3)cccc12
[2] COc1cc(CC2C(=O)OC[C@@H]2Cc2ccc(OC)c(OC)c2)ccc1O (stereo partly specified)
Qu. Please tell me which of the two, 1 or 2 , has the higher reported inhibition value. Field: selected label. Fill in the label of the entry you choose.
Ans. 2
(2: 1%, 1: 0%)
